Each entry below lists one item and its recorded IC90 value.
- TARGET DESC: HPIV3 envelope glycoproteins (Human parainfluenza 3 virus)
- Assay type: cell-based, Human parainfluenza virus type 3
- EXPERIMENTAL CONTEXT: fusion assay with HPIV3 envelope glycoproteins; read-out: IC90 nM, in vitro efficacy
Give the value, in units of nM, as a plain number.

* Ac-VALDPIDISIVLNKIKSDLEESKEWIRRSNKILDSI-GSGSG-C(PEG4-C30)-NH2 (SEQ ID NO: 13) [VIKI-PEG4-C30] | 800

Now consider a different substance.
Query for HPIV3 envelope glycoproteins (Human parainfluenza 3 virus): what IC90 does the record show for Ac-VALDPIDISIVLNKIKSDLEESKEWIRRSNKILDSI-GSGSG-C(PEG4-C20)-NH2 (SEQ ID NO: 12) [VIKI-PEG4-C20] ? 900

====

Each entry below lists one item and its recorded IC50 value.
- TARGET DESC: HPIV3 envelope glycoproteins (Human parainfluenza 3 virus)
- Type: cell-based, Human parainfluenza virus type 3
- EXPERIMENTAL CONTEXT: fusion assay with HPIV3 envelope glycoproteins; read-out: IC50 nM, in vitro efficacy
Give the value, in units of nM, as a plain number.

Here is how some substances turned out for IC50.
• Ac-VALDPIDISIVLNKIKSDLEESKEWIRRSNKILDSI-GSGSG-C(PEG4-palm)-NH2 (SEQ ID NO: 10) [VIKI-PEG4-palm] = 400
• Ac-VALDPIDISIVLNKIKSDLEESKEWIRRSNKILDSI-GSGSG-C(PEG4-C20)-NH2 (SEQ ID NO: 12) [VIKI-PEG4-C20] = 75
• Ac-VALDPIDISIVLNKIKSDLEESKEWIRRSNKILDSI-GSGSG-C(PEG4-Ursolic)-NH2 (SEQ ID NO: 15) [VIKI-PEG4-Ursolic] = 200
• Ac-VALDPIDISIVLNKIKSDLEESKEWIRRSNKILDSI-GSGSG-C(PEG4-C30)-NH2 (SEQ ID NO: 13) [VIKI-PEG4-C30] = 40

Now consider a different substance.
Item under review: Ac-VALDPIDISIVLNKIKSDLEESKEWIRRSNKILDSI-GSGSG-C(PEG4-Betulinic)-NH2 (SEQ ID NO: 14) [VIKI-PEG4-Betulinic] . Reported IC50? 550

====

- TARGET DESC: HPIV3 envelope glycoproteins (Human parainfluenza 3 virus, UniProt P06828)
- Sequence (P06828 110-539 limits assumed): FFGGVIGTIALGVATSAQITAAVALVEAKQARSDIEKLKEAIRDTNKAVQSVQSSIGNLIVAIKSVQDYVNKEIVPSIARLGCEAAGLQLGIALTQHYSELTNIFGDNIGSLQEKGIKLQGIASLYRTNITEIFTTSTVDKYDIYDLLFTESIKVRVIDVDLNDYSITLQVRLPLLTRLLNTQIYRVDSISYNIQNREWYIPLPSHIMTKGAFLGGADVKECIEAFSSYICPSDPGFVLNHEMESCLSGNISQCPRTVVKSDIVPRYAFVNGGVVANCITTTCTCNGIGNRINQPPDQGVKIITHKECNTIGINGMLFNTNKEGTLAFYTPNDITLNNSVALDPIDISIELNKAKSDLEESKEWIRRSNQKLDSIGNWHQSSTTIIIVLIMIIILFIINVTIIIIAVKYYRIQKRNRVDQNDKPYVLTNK
- Sequence (P06828 19-109 partner limits assumed): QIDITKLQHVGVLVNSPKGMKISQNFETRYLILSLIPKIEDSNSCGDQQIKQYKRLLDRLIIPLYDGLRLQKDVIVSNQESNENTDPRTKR
- Format: cell-based, Human parainfluenza virus type 3
- EXPERIMENTAL CONTEXT: fusion assay with HPIV3 envelope glycoproteins; read-out: IC90 nM, in vitro efficacy
ASSAY METRIC: IC90

- Ac-VALDPIDISIVLNKIKSDLEESKEWIRRSNKILDSI-GSGSG-C(PEG4-palm)-NH2 (SEQ ID NO: 10) [VIKI-PEG4-palm]: > 1000 nM

Item under review: Ac-VALDPIDISIVLNKIKSDLEESKEWIRRSNKILDSI-GSGSG-C(PEG4-Ursolic)-NH2 (SEQ ID NO: 15) [VIKI-PEG4-Ursolic] . Reported IC90? > 1000 nM

Item under review: Ac-VALDPIDISIVLNKIKSDLEESKEWIRRSNKILDSI-GSGSG-C(PEG4-Betulinic)-NH2 (SEQ ID NO: 14) [VIKI-PEG4-Betulinic] . Reported IC90? > 1000 nM

Sourced from patent US10172961B2
